Below, each entry is listed alongside its reported growth.
System: MDA-MB-231 breast
ASSAY EXPLANATION: NCI-60 one-dose screen, 48 h (100 = growth as untreated, 0 = no growth, -100 = all killed)
CONDITION SET: 10 µM
About 83,000 compounds went through this panel and 20% of them were active in at least one assay; those are over-represented in the sample as a whole. Active and inactive are the calls of the source. The calls were made as follows: active = growth percent below 10; inactive = the rest.

# COMPOUND, growth
measured = [
    ("COc1ccc(-n2c(SCc3cc(OC)c(OC)c(OC)c3)nc3ccc(C)cc3c2=O)cc1", "59.8% (inactive)"),
    ("CC(C)(Cl)CCC1=C(Cl)C(=O)c2ccccc2C1=O", "34.1% (inactive)"),
    ("Cc1cc(C)c(CCc2cc(C)c(C)cc2C)cc1C", "104% (inactive)"),
    ("O=C(Cc1csc2nc(-c3ccc(Cl)cc3)cn12)N/N=C/c1ccccc1O", "35.5% (inactive)"),
    ("O=C1C(=O)c2ccccc2C(O)=C1CCCc1ccc(C2CCCCCC2)cc1", "68.4% (inactive)"),
    ("O=C1OCC2=C1C(c1ccc(Cl)c(Cl)c1)c1cc3c(cc1N2CCO)OCCO3 (centres undefined)", "26.6% (inactive)"),
    ("CCCCCCCCN(CCCCCCCC)CCCCCCCCCN1CCCc2cc(OC)ccc21", "89.9% (inactive)"),
    ("COc1ccc2c(c1)N(CCO)C1=C(C(=O)OC1)C2c1ccc(OC)c(OC)c1 (centres undefined)", "68% (inactive)"),
    ("CCN(CC)Cc1cc(Nc2ccnc3cc(Cl)ccc23)ccc1OC", "55.7% (inactive)"),
    ("CN1CCC(CNc2cc(C3(C(=O)Nc4cc(C(=O)Nc5ccc(Cl)c(C(F)(F)F)c5)ccc4F)CC3)ncn2)CC1", "-32.2% (active)"),
    ("Cc1cccc2c1O/C(=C\\c1ccc([N+](=O)[O-])o1)C2=O", "-47.3% (active)"),
    ("Cc1cn(C2CCCCO2)c(=O)nc1NO (centres undefined)", "106% (inactive)"),
    ("COc1ccc(OC)c(/C=C/c2nc(SC)n(-c3ccc(Cl)cc3)n2)c1", "91.7% (inactive)"),
    ("O=[P@@]1(c2ccccc2)O[C@H](COCc2ccccc2)[C@@H](OCc2ccccc2)[C@H](OCc2ccccc2)[C@H]1O", "73.2% (inactive)"),
    ("CCN(CC)CCCOCCCNc1cc(OC)cc2cccnc12", "78% (inactive)"),
    ("COc1cc(-c2cc(C(=O)N3CCN(C(=O)c4ccccc4NCc4ccco4)CC3)nc3cc(-c4ccccc4)nn23)cc(OC)c1OC", "42.9% (inactive)"),
    ("O=C1Nc2ccccc2C1=NC1CCCCC1", "103% (inactive)"),
    ("O=C1CC[C@@H]2CCCC[C@@H]2C1", "96% (inactive)"),
    ("FC(F)(F)c1ccc(-c2cnc(-n3cc(COCCN4CCCCC4)nn3)nc2NC2CCCCCC2)cc1", "11.1% (inactive)"),
    ("C=C(NC(=O)C(=C)NC(=O)c1csc(C2=NC3c4csc(n4)C4NC(=O)c5csc(n5)C(C(C)(O)C(C)O)NC(=O)C5CSC(=N5)/C(=C/C)NC(=O)C(C(C)O)NC(=O)c5csc(n5)C3(CC2)NC(=O)C(C)NC(=O)C(=C)NC(=O)C(=C)NC(=O)C(C(C)C)NC2C=Cc3c(C(C)O)cc(nc3C2O)C(=O)OC4C)n1)C(N)=O (centres undefined)", "29.7% (inactive)"),
    ("COc1cc(NC(=O)c2sc3nc4c(cc3c2N)C(O)CCC4)cc(OC)c1 (centres undefined)", "88.9% (inactive)"),
    ("N=c1c2c(-c3ccccc3)c(-c3ccccc3)n(Cc3ccccc3)c2ncn1CCCO", "39% (inactive)"),
    ("Nc1nc(Nc2ccccc2)n[nH]1", "105% (inactive)"),
    ("COc1cccc(Cn2c(-c3nonc3N)nc3ccccc32)c1", "27.7% (inactive)"),
    ("CCN1CCN(c2nc3ccccc3c3c(=O)c4ccccc4sc23)CC1", "-2.38% (active)"),
    ("Cc1cc2c(C)c3cc(C)c(N)cc3nc2cc1N", "20.3% (inactive)"),
    ("CN(C)c1ccc(Cc2ccc(N(C)C)cc2Cl)c(Cl)c1", "109% (inactive)"),
    ("CC(=O)N1N=C(c2ccc(Cl)cc2)CC1c1sc(Cl)nc1Cl (centres undefined)", "82.1% (inactive)"),
    ("CNc1ncc(-c2ccc(C(F)(F)F)cc2)c(NC2CCCCCC2)n1", "92.8% (inactive)"),
]

* * *

System: SW-620 colon
ASSAY EXPLANATION: NCI-60 one-dose screen, 48 h
CONDITION SET: 10 µM
About 83,000 compounds went through this panel and 20% of them were active in at least one assay; those are over-represented in the sample as a whole. The source made the active and inactive calls. How the source made its calls: active means growth percent below 10; inactive means the rest.
Outcomes: active, inactive

# MOLECULE, GROUP LABEL
rows = [
    ("COc1ccc(-c2ccc(-c3ccc(C(=N)N)cn3)o2)cc1", "inactive"),
    ("COc1cc(-c2cc(/C=C3\\C(=O)Nc4cc(Cl)ccc43)[nH]n2)cc(OC)c1OC", "inactive"),
    ("COc1cc2c(cc1OCCCN1CCN(c3ncnc4ccccc34)CC1)N=CC1CCCN1C2=O (configuration not stated)", "active"),
    ("Clc1ccc(Sc2nc(NC3CC3)nc(Sc3ccc(Cl)cc3)n2)cc1", "inactive"),
    ("COc1ccc(-c2nc(-c3nc4cc(Cl)c(F)cc4[nH]3)c3ccccn23)cc1", "inactive"),
    ("c1ccc2c(-c3nc(N4CCOCC4)c4c5c(sc4n3)CCCCCC5)cccc2c1", "inactive"),
    ("COc1ccc2c(c1)/C(=C\\c1c[nH]c3ccc(OC)cc13)C(=O)N2", "inactive"),
]

* * *

Tested on: OVCAR-4 ovarian
ASSAY EXPLANATION: NCI-60 one-dose screen, 48 h
CONDITION SET: 10 µM
Compounds without any hit were thinned out: in the full panel of roughly 83,000, 20% have a hit. The source made the active and inactive calls. The calls were made as follows: active = growth percent below 10; inactive = the rest.
Outcomes: T for active, F for inactive

# MOLECULE, GROUP LABEL
records = [
    ("Cc1ccc(C)c(C(O)(c2cc(C)ccc2C)C2(O)CCCCC2)c1", "F"),
    ("O=C(CNC(=O)OCc1ccccc1)NCC(=O)Oc1ccc([N+](=O)[O-])cc1", "F"),
    ("COc1ccc(OC)c(/C=C/c2nc(SC)n(-c3ccc(Cl)cc3)n2)c1", "F"),
    ("c1ccc([I+]c2ccccc2)cc1", "F"),
    ("COC(=O)C(C(C[N+](=O)[O-])c1ccccc1)=P(c1ccccc1)(c1ccccc1)c1ccccc1 (centres undefined)", "F"),
    ("CO/N=C(/C(=O)NC1C(=O)N2C(C(=O)O)=C(COC(N)=O)CSC12)c1ccco1 (centres undefined)", "F"),
    ("COc1ccc(C2=Nc3c(C)nn(-c4ccccc4)c3NC(c3ccc(Oc4ccnc5cc(Cl)ccc45)c(OC)c3)C2)cc1 (centres undefined)", "F"),
    ("O=C1Nc2ccccc2C1=NC1CCCCC1", "F"),
    ("CN(CCc1ccccn1)c1ccccc1", "F"),
    ("CNc1ccc(CSc2ccc(C)cc2)cc1", "F"),
    ("COc1cc(C(=C2O[C@@H]([C@H]3COC(C)(C)O3)[C@H]3OC(C)(C)O[C@@H]23)c2cc(OC)c(OC)c(OC)c2)cc(OC)c1OC", "F"),
    ("CCN(CC)CCSCCN(CC)CC", "F"),
    ("CCOC(=O)N/N=C\\C(C)=N\\NC(=O)OCC", "F"),
    ("COc1cc(-c2cc(C(=O)N3CCN(C(=O)c4ccccc4NCc4cccs4)CC3)nc3cc(-c4ccccc4)nn23)cc(OC)c1OC", "F"),
    ("N=c1c2c(-c3ccccc3)c(-c3ccccc3)n(Cc3ccccc3)c2ncn1CCCO", "F"),
    ("Nc1ncn(C2OC(CO)C(O)C2O)c(=O)n1 (centres undefined)", "T"),
    ("COc1ccc(-c2nc(-c3nc4ccc(OC)cc4[nH]3)cc3c2[nH]c2ccccc23)cc1", "F"),
    ("COc1ccc(-c2nn(-c3cccc(NC(=O)c4cc(C(F)(F)F)cc(C(F)(F)F)c4)c3)cc2-c2ccncc2)cc1Cl", "F"),
    ("O=C1OCC2=C1C(c1cccc(Br)c1)c1cc3c(cc1N2CCO)CCC3 (centres undefined)", "F"),
    ("CN(C)CC(O)c1ccc2cc(Br)c3ccccc3c2c1 (centres undefined)", "F"),
    ("CCCCCCCCCCCCCCCC(=O)OC1[C@@H](OC(=O)CCCCCCCCCCCCCCC)[C@@H](C(=O)N[C@@H](CCCCN)C(=O)OC)O[C@H]1n1cnc2c(=O)[nH]c(NC(=O)C(C)C)nc21 (some centres undefined)", "F"),
    ("CCOC(=O)C(CSC(c1ccccc1)(c1ccccc1)c1ccccc1)NC(=O)C(CSC(c1ccccc1)(c1ccccc1)c1ccccc1)NC(c1ccccc1)(c1ccccc1)c1ccccc1 (centres undefined)", "F"),
    ("O=C(Nc1nc2ccc(F)cc2s1)c1cc(-c2ccc(F)cc2)n2nc(-c3ccccc3)cc2n1", "F"),
    ("O=C(N/N=C/c1ccccc1O)C(O)(c1ccccc1)c1ccccc1", "F"),
]
